Cited source for all entries: ChEMBL document CHEMBL3621116

- test.target: Non-receptor tyrosine-protein kinase TYK2 (Homo sapiens, UniProt P29597)
- Sequence (P29597 whole entry): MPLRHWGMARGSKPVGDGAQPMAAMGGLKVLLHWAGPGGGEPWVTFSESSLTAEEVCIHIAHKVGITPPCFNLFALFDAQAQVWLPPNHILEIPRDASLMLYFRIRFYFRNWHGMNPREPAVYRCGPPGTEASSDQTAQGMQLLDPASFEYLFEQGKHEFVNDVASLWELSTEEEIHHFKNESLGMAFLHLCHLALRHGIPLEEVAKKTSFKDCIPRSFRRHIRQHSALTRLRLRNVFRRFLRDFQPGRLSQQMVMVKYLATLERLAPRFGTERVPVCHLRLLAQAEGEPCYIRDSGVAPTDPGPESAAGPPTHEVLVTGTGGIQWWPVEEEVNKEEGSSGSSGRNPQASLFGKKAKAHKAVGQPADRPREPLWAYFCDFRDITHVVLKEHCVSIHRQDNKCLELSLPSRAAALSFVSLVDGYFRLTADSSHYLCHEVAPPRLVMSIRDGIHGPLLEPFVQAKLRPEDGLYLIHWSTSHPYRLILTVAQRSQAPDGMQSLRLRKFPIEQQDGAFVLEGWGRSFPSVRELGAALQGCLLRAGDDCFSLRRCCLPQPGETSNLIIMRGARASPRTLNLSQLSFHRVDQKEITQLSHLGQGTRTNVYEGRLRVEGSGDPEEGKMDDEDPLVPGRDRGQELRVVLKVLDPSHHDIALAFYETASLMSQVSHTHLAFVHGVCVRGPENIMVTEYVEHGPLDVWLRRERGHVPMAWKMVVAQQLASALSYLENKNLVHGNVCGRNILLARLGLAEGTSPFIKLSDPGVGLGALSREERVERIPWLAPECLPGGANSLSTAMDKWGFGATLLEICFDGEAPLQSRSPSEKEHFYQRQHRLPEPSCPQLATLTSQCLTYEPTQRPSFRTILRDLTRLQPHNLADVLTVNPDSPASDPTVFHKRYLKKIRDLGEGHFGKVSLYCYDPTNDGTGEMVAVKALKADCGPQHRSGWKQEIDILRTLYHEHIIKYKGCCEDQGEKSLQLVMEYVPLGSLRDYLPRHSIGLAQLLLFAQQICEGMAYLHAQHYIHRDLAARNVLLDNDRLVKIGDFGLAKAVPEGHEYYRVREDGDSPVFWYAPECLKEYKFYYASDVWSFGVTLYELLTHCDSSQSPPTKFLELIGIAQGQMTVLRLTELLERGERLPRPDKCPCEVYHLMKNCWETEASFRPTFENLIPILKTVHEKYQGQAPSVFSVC
- assay.explanation: Inhibition of Tyk2 (unknown origin) using 25 uM of ATP and Tyr3 peptide by Z'-LYTE kinase assay
Could you please report measured pIC50 for the items listed next?
The scale used: pIC50 is minus the common logarithm of the concentration in molar units.

Fill blank: measured pIC50 of the compound NCCn1c(-c2ccc(O)cc2)nc2cc(C(N)=O)ccc21 is ____.
5.49

Quick check: pIC50 of NCCn1c(-c2ccncc2)nc2cc(C(N)=O)ccc21 ?
5.24

Reported pIC50 for N#Cc1ccc(-c2nc3cc(C(N)=O)ccc3n2CCN)cc1 : what is it?
5.60

I am curious: what pIC50 value has been reported for NCCn1c(-c2ccc(C(F)(F)F)cc2)nc2cc(C(N)=O)ccc21 ?
5.49

// query pIC50 value for entry NCCc1nc2cc(C(N)=O)ccc2n1CCN
5.51

// pIC50 lookup, key: NCCn1c(C2CCCCC2)nc2cc(C(N)=O)ccc21
5.48

Looking for the measured pIC50 of NCCn1c(-c2cncnc2)nc2cc(C(N)=O)ccc21 , can you help?
5.55

I'd like to know its pIC50. The compound in question is Cc1ccc(-c2nc3cc(C(N)=O)ccc3n2CCN)cc1
5.46

State the recorded pIC50 for this entry: CC(C)c1ccc(-c2nc3cc(C(N)=O)ccc3n2CCN)cc1
5.57

Consider the compound shown here: NCCn1c(-c2cccnc2N)nc2cc(C(N)=O)ccc21 What is its recorded pIC50?
5.37

====

- Organism: Homo sapiens
- assay.explanation: Selectivity ratio of IC50 for JAK2 (unknown origin) using 35 uM of ATP and Tyr6 peptide to IC50 for JAK1 (unknown origin) using 87 uM of ATP and Tyr6 peptide
In this scheme, each record receives a class according to its Ratio IC50; the ranges are bin 0 = under 0.6, bin 1 = from 0.6 up to 1, bin 2 = 1 and over

For this compound, which bin applies? NCCc1nc2cc(C(N)=O)ccc2n1CCN
bin 2

Please classify: NCCn1c(-c2ccc(O)cc2O)nc2cc(C(N)=O)ccc21
bin 1

For this compound, which bin applies? NCCn1c(-c2ccccc2)nc2cc(C(N)=O)ccc21
bin 0

Exercise: read the entry N#Cc1ccc(-c2nc3cc(C(N)=O)ccc3n2CCN)cc1 and state which class it falls under.
bin 1

Lab log: NCCn1c(-c2cncnc2)nc2cc(C(N)=O)ccc21 — assign Ratio IC50 category
bin 0

Assign a category based on measured Ratio IC50 for NCCCn1c(CCN)nc2cc(C(N)=O)ccc21 and give only the class name.
bin 0

Kindly identify the class of NCCn1c(-c2ccncc2)nc2cc(C(N)=O)ccc21 .
bin 0

The entry to classify is NCCCn1c(-c2ccccc2)nc2cc(C(N)=O)ccc21 ; which class holds it?
bin 2

Category lookup for the compound NCCn1c(C2CCNCC2)nc2cc(C(N)=O)ccc21
bin 2

Would you mind sorting Cc1ccc(-c2nc3cc(C(N)=O)ccc3n2CCN)cc1 into the appropriate category?
bin 1

Given NCCn1c(-c2ccc(C(F)(F)F)cc2)nc2cc(C(N)=O)ccc21 , name the class its Ratio IC50 places it in.
bin 0

Each compound maps to one class by Ratio IC50. Which class for NCCCc1nc2cc(C(N)=O)ccc2n1CCN ?
bin 1

Just checking, what class would you give CC(C)c1ccc(-c2nc3cc(C(N)=O)ccc3n2CCN)cc1 here?
bin 2

Category of NCCn1c(-c2ccc(O)cc2)nc2cc(C(N)=O)ccc21 , please.
bin 2

====

- Species on record: Homo sapiens
- assay.explanation: Selectivity ratio of IC50 for JAK3 (unknown origin) using 16 uM of ATP and Tyr6 peptide to IC50 for JAK1 (unknown origin) using 87 uM of ATP and Tyr6 peptide
value.type: Ratio IC50
Please give the numeric answer without any surrounding text.

Which Ratio IC50 is listed for NCCCn1c(CCN)nc2cc(C(N)=O)ccc21 ?
0.2

// returns reported Ratio IC50 for input N#Cc1ccc(-c2nc3cc(C(N)=O)ccc3n2CCN)cc1
0.7

Quick one: Ratio IC50 for NCCn1c(-c2ccc(C(F)(F)F)cc2)nc2cc(C(N)=O)ccc21 ?
0.2

Please look up its Ratio IC50: NCCn1c(-c2cccnc2N)nc2cc(C(N)=O)ccc21
0.2

====

- test.target: Tyrosine-protein kinase JAK2 (Homo sapiens)
- assay.explanation: Inhibition of JAK2 (unknown origin) using 35 uM of ATP and Tyr6 peptide by Z'-LYTE kinase assay
Hi! Just check whether IC50 is below 3 µM. Below gives Condition met, equal or above gives Condition not met.

Hello, is IC50 of the following molecule strictly smaller than 3 µM? N#Cc1ccc(-c2nc3cc(C(N)=O)ccc3n2CCN)cc1
Condition met

Strictly below 3 µM in IC50? NCCn1c(-c2ccc(O)cc2)nc2cc(C(N)=O)ccc21
Condition met

Decide: IC50 of CC(C)c1ccc(-c2nc3cc(C(N)=O)ccc3n2CCN)cc1 strictly below 3 µM?
Condition not met

IC50 under 3 µM? Item: NCCc1nc2cc(C(N)=O)ccc2n1CCN
Condition met

In the record for NCCn1c(C2CCNCC2)nc2cc(C(N)=O)ccc21 , is IC50 less than 3 µM?
Condition not met

Consider NCCn1c(-c2ccncc2)nc2cc(C(N)=O)ccc21 . Does its IC50 lie strictly below 3 µM?
Condition not met

====

- test.target: Tyrosine-protein kinase JAK2 (Homo sapiens, UniProt O60674)
- Sequence (O60674 whole entry): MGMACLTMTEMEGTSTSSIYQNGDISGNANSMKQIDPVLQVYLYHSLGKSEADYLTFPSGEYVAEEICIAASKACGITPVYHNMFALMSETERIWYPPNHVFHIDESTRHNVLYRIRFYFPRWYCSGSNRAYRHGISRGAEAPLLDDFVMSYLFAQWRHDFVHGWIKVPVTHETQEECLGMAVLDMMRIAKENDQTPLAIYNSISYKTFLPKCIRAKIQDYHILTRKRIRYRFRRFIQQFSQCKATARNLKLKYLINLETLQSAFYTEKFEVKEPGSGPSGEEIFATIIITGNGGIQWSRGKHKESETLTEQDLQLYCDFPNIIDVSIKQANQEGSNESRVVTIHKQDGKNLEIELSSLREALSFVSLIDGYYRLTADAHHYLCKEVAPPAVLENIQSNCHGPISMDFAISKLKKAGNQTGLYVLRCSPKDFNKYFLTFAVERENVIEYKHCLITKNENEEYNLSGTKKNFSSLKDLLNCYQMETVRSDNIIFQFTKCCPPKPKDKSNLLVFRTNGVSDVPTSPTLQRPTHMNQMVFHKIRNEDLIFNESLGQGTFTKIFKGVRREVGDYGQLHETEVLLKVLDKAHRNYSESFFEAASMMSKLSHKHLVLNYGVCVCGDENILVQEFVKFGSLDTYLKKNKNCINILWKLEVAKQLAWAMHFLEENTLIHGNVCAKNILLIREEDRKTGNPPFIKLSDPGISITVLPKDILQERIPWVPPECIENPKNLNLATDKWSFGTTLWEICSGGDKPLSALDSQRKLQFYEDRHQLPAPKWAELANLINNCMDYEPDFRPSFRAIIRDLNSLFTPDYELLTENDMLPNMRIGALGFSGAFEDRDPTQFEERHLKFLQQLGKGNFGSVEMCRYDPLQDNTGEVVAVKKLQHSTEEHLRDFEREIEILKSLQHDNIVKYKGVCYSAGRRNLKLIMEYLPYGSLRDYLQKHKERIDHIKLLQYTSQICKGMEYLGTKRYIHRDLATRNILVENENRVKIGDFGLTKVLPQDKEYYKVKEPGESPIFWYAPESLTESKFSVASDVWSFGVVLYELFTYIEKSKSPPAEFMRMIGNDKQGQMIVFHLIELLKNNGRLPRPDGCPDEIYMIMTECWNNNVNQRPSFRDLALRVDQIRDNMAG
- assay.explanation: Inhibition of JAK2 (unknown origin)
value.type: pIC50
pIC50 is a log-scale quantity: -log10 of the concentration expressed in molar.

Record lookup: for Tyrosine-protein kinase JAK2 (Homo sapiens, UniProt O60674), what pIC50 belongs to CC[C@@](C)(Nc1ccnc(-c2c[nH]c3ncccc23)n1)C(=O)NCC(F)(F)F ?
7.89

====

- test.target: Tyrosine-protein kinase JAK1 (Homo sapiens)
- Sequence (P23458 whole entry): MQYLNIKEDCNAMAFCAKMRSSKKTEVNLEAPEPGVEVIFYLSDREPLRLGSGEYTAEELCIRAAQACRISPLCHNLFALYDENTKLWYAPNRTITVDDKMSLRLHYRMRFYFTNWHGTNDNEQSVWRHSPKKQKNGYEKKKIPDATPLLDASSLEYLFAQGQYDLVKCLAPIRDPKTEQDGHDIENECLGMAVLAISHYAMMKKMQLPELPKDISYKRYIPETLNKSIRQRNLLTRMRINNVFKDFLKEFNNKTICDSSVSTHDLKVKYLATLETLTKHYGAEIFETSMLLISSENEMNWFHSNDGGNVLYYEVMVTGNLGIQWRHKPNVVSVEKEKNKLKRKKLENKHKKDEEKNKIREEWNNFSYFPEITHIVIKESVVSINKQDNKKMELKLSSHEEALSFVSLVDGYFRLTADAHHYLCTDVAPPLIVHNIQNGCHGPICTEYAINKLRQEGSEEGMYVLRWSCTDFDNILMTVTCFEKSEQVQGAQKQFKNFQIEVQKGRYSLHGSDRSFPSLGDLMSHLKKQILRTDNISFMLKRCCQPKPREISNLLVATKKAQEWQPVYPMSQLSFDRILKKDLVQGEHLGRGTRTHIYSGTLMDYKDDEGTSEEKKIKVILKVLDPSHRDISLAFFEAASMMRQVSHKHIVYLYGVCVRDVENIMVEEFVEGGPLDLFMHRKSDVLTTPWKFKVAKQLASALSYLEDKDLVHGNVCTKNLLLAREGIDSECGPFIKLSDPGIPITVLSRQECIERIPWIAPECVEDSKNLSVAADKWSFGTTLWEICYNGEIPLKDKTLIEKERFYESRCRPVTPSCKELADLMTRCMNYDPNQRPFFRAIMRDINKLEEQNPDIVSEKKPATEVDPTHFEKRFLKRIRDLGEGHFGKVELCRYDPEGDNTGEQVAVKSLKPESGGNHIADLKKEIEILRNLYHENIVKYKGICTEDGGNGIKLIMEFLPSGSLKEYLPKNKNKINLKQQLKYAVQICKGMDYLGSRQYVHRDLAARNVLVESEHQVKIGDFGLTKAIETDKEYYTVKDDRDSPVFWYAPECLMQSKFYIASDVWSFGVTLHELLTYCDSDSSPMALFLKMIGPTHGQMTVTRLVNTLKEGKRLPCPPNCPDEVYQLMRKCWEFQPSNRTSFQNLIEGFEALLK
- assay.explanation: Inhibition of JAK1 (unknown origin) using 87 uM of ATP and Tyr6 peptide by Z'-LYTE kinase assay
value.type: pIC50
Reminder that pIC50 is minus the log10 of a molar concentration.

Which pIC50 is listed for NCCn1c(-c2ccc(O)cc2)nc2cc(C(N)=O)ccc21 ?
7.00

What does the data say about its pIC50? Entry: NCCn1c(-c2ccncc2)nc2cc(C(N)=O)ccc21
4.49

Look at this molecule and give its reported pIC50. NCCn1c(-c2cncnc2)nc2cc(C(N)=O)ccc21
5.47

May I ask what pIC50 has been recorded for NCCCn1c(-c2ccccc2)nc2cc(C(N)=O)ccc21 ?
4.95

Given the molecule NCCn1c(-c2ccc(C(F)(F)F)cc2)nc2cc(C(N)=O)ccc21 , what is its reported pIC50?
5.03

Which pIC50 value is on record for NCCn1c(-c2cccnc2N)nc2cc(C(N)=O)ccc21 ?
5.09

Fill in: pIC50 of NCCn1c(-c2ccccc2)nc2cc(C(N)=O)ccc21 is ___
4.94

Value lookup for pIC50; key = NCCn1c(C2CCCCC2)nc2cc(C(N)=O)ccc21
5.37

Requested field: pIC50. Item: CC(C)c1ccc(-c2nc3cc(C(N)=O)ccc3n2CCN)cc1
5.51

Record request: pIC50 value, item NCCCn1c(CCN)nc2cc(C(N)=O)ccc21
5.21

Name the reported pIC50 value associated with the molecule NCCn1c(C2CCNCC2)nc2cc(C(N)=O)ccc21
7.30

What does the data say about its pIC50? Entry: NCCc1nc2cc(C(N)=O)ccc2n1CCN
7.00

Quick one: pIC50 of NCCn1c(-c2ccc(O)cc2O)nc2cc(C(N)=O)ccc21 ?
5.51

// pIC50 lookup, key: N#Cc1ccc(-c2nc3cc(C(N)=O)ccc3n2CCN)cc1
5.54

Data request, read-out pIC50, for Cc1ccc(-c2nc3cc(C(N)=O)ccc3n2CCN)cc1
5.43

Entry NCCCc1nc2cc(C(N)=O)ccc2n1CCN : reported pIC50 = ?
5.66

====

- test.target: Tyrosine-protein kinase JAK2 (Homo sapiens)
- assay.explanation: Inhibition of JAK2 (unknown origin) using 35 uM of ATP and Tyr6 peptide by Z'-LYTE kinase assay
value.type: IC50 (nM)
Numbers only; they are read as nM.

Endpoint output: IC50 of NCCn1c(C2CCCCC2)nc2cc(C(N)=O)ccc21 . Value?
4100

IC50 lookup needed for NCCn1c(-c2ccc(O)cc2O)nc2cc(C(N)=O)ccc21 , thanks.
2500

Entry NCCn1c(-c2cncnc2)nc2cc(C(N)=O)ccc21 : reported IC50 = ?
1600

IC50 for Cc1ccc(-c2nc3cc(C(N)=O)ccc3n2CCN)cc1 ?
2600

Item NCCCc1nc2cc(C(N)=O)ccc2n1CCN has what recorded IC50?
1600

# IC50 lookup, item NCCn1c(-c2ccccc2)nc2cc(C(N)=O)ccc21
2800

====

- assay.explanation: Half life in Sprague-Dawley rat at 5 mg/kg, iv
- Type: ADME, organism-based
- run.conditions: in vivo
value.type: half-life (h)
Give just the numeric value; h need not be written.

Suppose we examine the molecule NCCn1c(C2CCNCC2)nc2cc(C(N)=O)ccc21 ; what half-life value has been reported?
9.1
